Attribution: BigSolDB 2.1

study conditions: in water, 293.15 K
quantity: solubility (mole fraction)
Give the figure only, with no unit attached.

For this compound ( NC(=O)c1ncn([C@@H]2O[C@H](CO)[C@@H](O)[C@H]2O)n1 ), measured solubility (mole fraction) is 0.0135
